# method description: In vitro human liver microsomal stability assay
# Assay type: in vitro ADME
# condition info: human liver microsomes 0.5 mg per mL protein, NADPH-generating system, 1 μM test compound, 37±1° C., 0-60 min; read-out: Clearance %
# Procedure: In Vitro Liver Microsomal Stability Assay […] Test compounds were prepared as solutions in DMSO and added to the assay mixture (1 μM, final concentration in incubation) to be incubated at 37±1° C. […] Supernatant fractions were analyzed by LC-MS/MS to determine the percent remaining and estimate the degradation half-life of the test compounds.
measure name: CLint scaled at 1 μM (mL/min/kg)

- compound: "[2H]C1([2H])Oc2ccc(-c3ccc(OC(F)(F)F)cc3)cc2C(=O)N(Cc2ncccn2)C1([2H])[2H]"
  experimental value: 21.5
- compound: "[2H]C([2H])(c1ncccn1)N1CCOc2ccc(-c3ccc(OC(F)(F)F)cc3)cc2C1=O"
  experimental value: 3.04
- compound: "[2H]C1([2H])COc2ccc(-c3ccc(OC(F)(F)F)cc3)cc2C(=O)N1Cc1ncccn1"
  experimental value: 14.4

[I] [2H]c1c(-c2ccc(OC(F)(F)F)cc2)cc2c(c1[2H])OCCN(Cc1ncccn1)C2=O
[II] [2H]C1([2H])CN(Cc2ncccn2)C(=O)c2cc(-c3ccc(OC(F)(F)F)cc3)ccc2O1
[III] [2H]C([2H])(c1ncccn1)N1C(=O)c2cc(-c3ccc(OC(F)(F)F)cc3)ccc2OC([2H])([2H])C1([2H])[2H]
Prompt: # ascending order, key=CLint scaled at 1 μM Show the ranking through the labels, in the order asked for.
Response: II, I, III
(II: 6.27 mL/min/kg, I: 12.5 mL/min/kg, III: 19.2 mL/min/kg)
